substances and their reported pIC50
- study-target: dipeptidyl peptidase IV (DPP-IV) (Homo sapiens, UniProt P27487)
- Sequence (P27487 whole entry, species assumed): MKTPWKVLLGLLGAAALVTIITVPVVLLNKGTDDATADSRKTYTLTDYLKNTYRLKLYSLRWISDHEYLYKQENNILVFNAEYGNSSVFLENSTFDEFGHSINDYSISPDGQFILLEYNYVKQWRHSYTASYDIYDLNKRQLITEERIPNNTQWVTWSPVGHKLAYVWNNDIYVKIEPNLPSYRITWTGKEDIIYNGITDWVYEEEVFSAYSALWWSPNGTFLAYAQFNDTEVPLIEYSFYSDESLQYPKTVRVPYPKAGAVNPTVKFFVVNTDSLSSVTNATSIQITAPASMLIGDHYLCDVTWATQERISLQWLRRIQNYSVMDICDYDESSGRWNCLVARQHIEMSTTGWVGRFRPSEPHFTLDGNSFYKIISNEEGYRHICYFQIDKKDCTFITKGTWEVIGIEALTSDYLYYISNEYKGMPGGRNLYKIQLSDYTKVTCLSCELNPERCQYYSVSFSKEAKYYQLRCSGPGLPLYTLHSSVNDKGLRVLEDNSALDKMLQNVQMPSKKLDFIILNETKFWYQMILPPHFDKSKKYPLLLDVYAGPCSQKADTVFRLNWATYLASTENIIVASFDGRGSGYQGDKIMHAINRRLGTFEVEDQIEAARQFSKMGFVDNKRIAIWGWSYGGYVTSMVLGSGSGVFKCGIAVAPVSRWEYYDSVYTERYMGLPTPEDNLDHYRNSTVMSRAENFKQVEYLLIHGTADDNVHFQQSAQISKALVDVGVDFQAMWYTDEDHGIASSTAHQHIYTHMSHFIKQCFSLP
- test-name: In vitro antidiabetic assay (DPP-IV inhibition)
- Assay type: biochemical
Ends that are not written are not given here.
Lab note — pIC50 values are minus log10 of concentrations in M.

- substance: "GRDGEP-NH2 [P2, GRDGEP]"
  study-target: "dipeptidyl peptidase IV (DPP-IV) (Homo sapiens, UniProt P27487)"
  pIC50: 2.83

Consider the additional substance presented here.
// pIC50 value for MTGTQGEAGR-NH2 [P3, MTGTQGEAGR] : 2.94

---

- study-target: angiotensin-converting enzyme (ACE) (Homo sapiens)
- Sequence (P12821 30-1306, species assumed): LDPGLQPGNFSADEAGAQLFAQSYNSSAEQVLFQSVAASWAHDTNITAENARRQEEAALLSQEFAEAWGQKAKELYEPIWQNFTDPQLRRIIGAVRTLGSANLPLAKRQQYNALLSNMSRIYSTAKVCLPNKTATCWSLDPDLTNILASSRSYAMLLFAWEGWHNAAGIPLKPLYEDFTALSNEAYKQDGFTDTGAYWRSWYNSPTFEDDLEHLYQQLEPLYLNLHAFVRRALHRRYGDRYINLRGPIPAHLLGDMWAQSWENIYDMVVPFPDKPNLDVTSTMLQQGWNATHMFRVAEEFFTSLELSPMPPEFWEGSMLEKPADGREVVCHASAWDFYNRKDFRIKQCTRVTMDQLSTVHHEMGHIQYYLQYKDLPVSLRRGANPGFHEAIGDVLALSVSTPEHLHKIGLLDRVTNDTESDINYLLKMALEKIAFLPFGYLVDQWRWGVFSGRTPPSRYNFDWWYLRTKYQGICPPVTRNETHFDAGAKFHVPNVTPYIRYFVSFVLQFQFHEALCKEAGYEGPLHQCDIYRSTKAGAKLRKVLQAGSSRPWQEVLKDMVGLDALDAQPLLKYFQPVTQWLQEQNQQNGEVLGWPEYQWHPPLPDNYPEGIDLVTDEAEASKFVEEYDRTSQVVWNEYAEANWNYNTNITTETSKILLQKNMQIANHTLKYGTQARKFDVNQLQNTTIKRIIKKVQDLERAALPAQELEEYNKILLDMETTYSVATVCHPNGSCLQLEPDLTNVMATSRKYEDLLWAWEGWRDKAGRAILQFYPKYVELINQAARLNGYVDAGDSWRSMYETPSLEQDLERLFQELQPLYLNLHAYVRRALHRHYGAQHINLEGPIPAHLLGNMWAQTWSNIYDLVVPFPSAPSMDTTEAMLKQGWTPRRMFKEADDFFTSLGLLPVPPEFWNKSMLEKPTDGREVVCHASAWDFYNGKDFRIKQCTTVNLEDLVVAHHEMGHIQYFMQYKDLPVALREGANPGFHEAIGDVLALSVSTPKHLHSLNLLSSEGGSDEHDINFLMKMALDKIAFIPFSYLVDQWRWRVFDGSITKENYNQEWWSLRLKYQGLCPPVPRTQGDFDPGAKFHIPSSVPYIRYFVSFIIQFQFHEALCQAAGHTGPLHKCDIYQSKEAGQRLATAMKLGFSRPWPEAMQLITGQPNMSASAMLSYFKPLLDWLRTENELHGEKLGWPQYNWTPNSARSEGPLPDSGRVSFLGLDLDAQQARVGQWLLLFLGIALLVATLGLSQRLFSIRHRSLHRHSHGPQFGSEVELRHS
- test-name: In vitro antihypertensive assay (ACE inhibition, FAPGG, spectrophotometric)
- Format: biochemical
Ends that are not written are not given here.
measurement-kind: IC50 (µM)
Number only, in µM; omit the unit.

- substance: "GRDGEP-NH2 [P2, GRDGEP]"
  IC50, µM: 811

Next:
The measured IC50 associated with MTGTQGEAGR-NH2 [P3, MTGTQGEAGR] reads 775
